B1: glmS ribozyme (parent)
chain: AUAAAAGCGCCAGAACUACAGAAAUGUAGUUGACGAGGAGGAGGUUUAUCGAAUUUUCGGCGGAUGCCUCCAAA

Variants of: B1
Assay: self-cleavage kobs at 160 uM GlcN6P; higher = faster cleavage; RNA array
Conditions: with glucosamine-6-phosphate
Fewer inactive variants are shown than the library holds.
Please go through the items and note down their self-cleavage kobs at 160 uM GlcN6P.

MUTATION_SPEC	self-cleavage kobs at 160 uM GlcN6P
A42U U46C	< 1e-05 s⁻¹
A6G C50U U55C	< 1e-05 s⁻¹
G7U U47A A52C A53U U55G C61U	< 1e-05 s⁻¹
A33C G60U	< 1e-05 s⁻¹
G37U G40A	< 1e-05 s⁻¹

For each entry beneath this line, provide reported self-cleavage kobs at 160 uM GlcN6P.
1. C11U U30C
2. C11U C50G C58A
3. C8U G41U C58U C68A C70G
4. G7U U54C
5. G9U C10G C11U C70U
6. A36C A39G C68U
7. C34A G63U

1: 5.41e-05 s⁻¹; 2: 0.00015 s⁻¹; 3: < 1e-05 s⁻¹; 4: < 1e-05 s⁻¹; 5: < 1e-05 s⁻¹; 6: < 1e-05 s⁻¹; 7: < 1e-05 s⁻¹

For each entry beneath this line, provide reported self-cleavage kobs at 160 uM GlcN6P.
1. G29U A53G
2. C50U U56C C67U
3. A15U C70G
4. C58U U69G

1. 0.000262 s⁻¹
2. < 1e-05 s⁻¹
3. 4.66e-05 s⁻¹
4. 5.15e-05 s⁻¹

For each entry beneath this line, provide reported self-cleavage kobs at 160 uM GlcN6P.
1. U31A G32A
2. G29A G35C
3. A33U G35U A42U G44U
4. U30G U46G

1: 6.66e-05 s⁻¹; 2: < 1e-05 s⁻¹; 3: < 1e-05 s⁻¹; 4: 0.000105 s⁻¹

For each entry beneath this line, provide reported self-cleavage kobs at 160 uM GlcN6P.
1. G7U U55G
2. A15G C16G A33G A52G G60A

["< 1e-05 s⁻¹", "< 1e-05 s⁻¹"]
